target: Wnt-responsive promoter (TCF/LEF); assay: Wnt-dependent luciferase reporter assay
Where a SMILES comes first, the peptide text is derived from it.
outcome measure: EC50

{"columns": ["compound", "tested on", "outcome measure", "result value"],
 "data": [
  ["CC[C@H](C)[C@@H]1NC(=O)[C@H](CC(C)C)NC(=O)[C@H](Cc2ccccc2)NC(=O)[C@H](Cc2c[nH]c3ccccc23)NC(=O)[C@@H](NC(C)=O)CC(=O)NCCCC[C@@H](C(=O)NCC(=O)O)NC(=O)[C@H](Cc2c[nH]c3ccccc23)NC(=O)[C@H](Cc2ccccc2)NC(=O)[C@H](CS)NC1=O [compound 175] (HELM PEPTIDE1{[ac].D.W.F.L.I.C.F.W.K.G}$PEPTIDE1,PEPTIDE1,2:R3-10:R3$$$V2.0)", "Wnt-responsive promoter (TCF/LEF)", "EC50", "7.5 to 15 µM"],
  ["CC[C@H](C)[C@H](NC(=O)[C@H](CC(C)C)NC(=O)[C@@H](NC(=O)[C@H](Cc1c[nH]c2ccccc12)NC(=O)[C@@H](N)CCSC)[C@@H](C)CC)C(=O)N[C@@H](CO)C(=O)N[C@@H](Cc1ccccc1)C(=O)N[C@@H](Cc1c[nH]c2ccccc12)C(=O)NCC(=O)O [compound 43] (H-MWILISFWG-OH)", "Wnt-responsive promoter (TCF/LEF)", "EC50", "< 7.5 µM"],
  ["CC[C@H](C)[C@H](NC(=O)[C@H](CC(C)C)NC(=O)[C@H](Cc1ccccc1)NC(=O)[C@H](Cc1c[nH]c2ccccc12)NC(=O)[C@@H](N)CCSC)C(=O)N[C@@H](CO)C(=O)N[C@@H](Cc1ccccc1)C(=O)N[C@@H](Cc1c[nH]c2ccccc12)C(=O)N[C@@H](CCC(=O)O)C(=O)NCC(=O)O [compound 47] (H-MWFLISFWEG-OH)", "Wnt-responsive promoter (TCF/LEF)", "EC50", "< 7.5 µM"],
  ["CC[C@H](C)[C@@H]1NC(=O)[C@H](CC(C)C)NC(=O)[C@H](Cc2ccccc2)NC(=O)[C@H](Cc2c[nH]c3ccccc23)NC(=O)[C@H](CCSC)NC(=O)[C@@H](N)CCCCNC(=O)CC[C@@H](C(=O)N[C@@H](Cc2c[nH]c3ccccc23)C(=O)NCC(=O)O)NC(=O)[C@H](CS)NC1=O [compound 180] (HELM PEPTIDE1{K.M.W.F.L.I.C.E.W.G}$PEPTIDE1,PEPTIDE1,1:R3-8:R3$$$V2.0)", "Wnt-responsive promoter (TCF/LEF)", "EC50", "< 7.5 µM"],
  ["CC[C@H](C)[C@H](NC(=O)[C@H](CC(C)C)NC(=O)[C@H](Cc1ccccc1)NC(=O)[C@H](Cc1c[nH]c2ccccc12)NC(C)=O)C(=O)N[C@@H](CS)C(=O)N[C@@H](Cc1ccccc1)C(=O)N[C@@H](Cc1c[nH]c2ccccc12)C(=O)NCC(=O)O [compound 194] (Ac-WFLICFWG-OH)", "Wnt-responsive promoter (TCF/LEF)", "EC50", "< 7.5 µM"],
  ["CC[C@H](C)[C@H](NC(=O)[C@H](Cc1c[nH]c2ccccc12)NC(=O)[C@@H](N)CCSC)C(=O)N[C@@H](CC(C)C)C(=O)N[C@H](C(=O)N[C@H](C(=O)N[C@@H](Cc1ccccc1)C(=O)N[C@@H](Cc1c[nH]c2ccccc12)C(=O)NCC(=O)O)[C@@H](C)O)[C@@H](C)CC [compound 150] (H-MWILITFWG-OH)", "Wnt-responsive promoter (TCF/LEF)", "EC50", "< 7.5 µM"]
]}
